# Test system: DU-145 cells (metastatic prostate carcinoma)
# Format: cell-based, human
# stated-conditions: read-out: IC50 DU-145
measured-parameter: IC50 (µM)
// note: answer is a bare numeric in µM

Request: // returns reported IC50 for input O=C1[O][Pt]2([NH][C@@H]3CCCC[C@H]3[NH]2)[O]C1=O
Response: 4.5

---

# Tested on: HFF-1 cells (normal human foreskin fibroblast)
# Assay type: cell-based
# stated-conditions: read-out: IC50 HFF-1
measured-parameter: pIC50
The scale used: pIC50 is minus the common logarithm of the concentration in molar units.

Request: // returns reported pIC50 for input O=C1[O][Pt]2([NH][C@@H]3CCCC[C@H]3[NH]2)[O]C1=O
Response: 5.15
